pIC50 values for the compounds below.
system: L02; experiment: Cytotoxicity against human L02 cells assessed as reduction in cell viability after 72 hrs by MTT assay; format: cell-based; conditions: L02, 72 h
Answer as the number alone; pIC50 is minus log10 of concentration in mol/L.

Recorded results for 7 compounds are shown here.
compound	val
C=C1C(=O)[C@]23[C@H](O)[C@H]1CC[C@H]2[C@@]12CO[C@]3(O)[C@@H](O)[C@@H]1C(C)(C)CCC2=O	4.63
C=C1C(=O)[C@@]23C(=O)OC[C@]4(C(=O)CCC(C)(C)[C@H]4C=O)[C@@H]2CC[C@@H]1[C@H]3O	4.53
C=C1C(=O)[C@]23[C@H](O)[C@H]1CC[C@H]2[C@@]12CO[C@@]3(O)[C@@H](O)[C@@H]1C(C)(C)CC[C@@H]2OC(C)=O	4.65
C=C1C(=O)[C@]23[C@H](OC(=O)c4ccccc4C(=O)Oc4ccc(-c5cc(=S)ss5)cc4)[C@H]1CC[C@H]2[C@@]12CO[C@]3(O)[C@@H](O)[C@@H]1C(C)(C)CCC2=O	4.37
C=C1C(=O)[C@@]23C(=O)OC[C@]4(C(=O)CCC(C)(C)[C@H]4C=O)[C@@H]2CC[C@@H]1[C@H]3OC(=O)CCCCC1CCSS1 (some centres not stated)	4.70
C=C1C(=O)[C@]23[C@H](OC(=O)CCCCC4CCSS4)[C@H]1CC[C@H]2[C@@]12CO[C@]3(O)[C@@H](O)[C@@H]1C(C)(C)CC[C@@H]2OC(C)=O (some centres not stated)	4.39
C=C1C(=O)[C@@]23C(=O)OC[C@]4(C(=O)CCC(C)(C)[C@H]4C=O)[C@@H]2CC[C@@H]1[C@H]3OC(=O)c1ccccc1C(=O)Oc1ccc(-c2cc(=S)ss2)cc1	4.58

--- query ---
Answer with reported pIC50 of C=C1C(=O)[C@]23[C@H](O)[C@H]1CC[C@H]2[C@@]12CO[C@]3(O)[C@@H](O)[C@@H]1C(C)(C)CC[C@@H]2O
4.73

---

experiment: Selectivity index, ratio of IC50 for human PBMC to IC50 for human Bel7402 cells after 72 hrs by MTT assay; assay type: toxicity; conditions: PBMC versus Bel7402 cells, read-out: Ratio IC50
experimentalEndpoint: selectivity ratio at 72 h
# print the numeric value only

Answer with reported selectivity ratio at 72 h of C=C1C(=O)[C@@]23C(=O)OC[C@]4(C(=O)CCC(C)(C)[C@H]4C=O)[C@@H]2CC[C@@H]1[C@H]3OC(=O)CCCC(=O)Oc1ccc(-c2cc(=S)ss2)cc1
24

---

system: K562; test: Antiproliferative activity against human K562 cells assessed as reduction in cell viability after 72 hrs by MTT assay; type: functional, cell-based; settings: K562, 72 h
pIC50 values for the compounds below.
Answer as the number alone; pIC50 is minus log10 of concentration in mol/L.

Recorded results for 6 compounds are shown here.
compound	val
C=C1C(=O)[C@@]23C(=O)OC[C@]4([C@@H](OC(C)=O)CCC(C)(C)[C@H]4C=O)[C@@H]2CC[C@@H]1[C@H]3OC(=O)CCCC(=O)Oc1ccc(-c2cc(=S)ss2)cc1	5.49
C=C1C(=O)[C@]23[C@H](OC(=O)CCC(=O)Oc4ccc(-c5cc(=S)ss5)cc4)[C@H]1CC[C@H]2[C@@]12CO[C@]3(O)[C@@H](O)[C@@H]1C(C)(C)CC[C@@H]2OC(C)=O	5.60
C=C1C(=O)[C@@]23C(=O)OC[C@]4(C(=O)CCC(C)(C)[C@H]4C=O)[C@@H]2CC[C@@H]1[C@H]3OC(=O)CCCCC1CCSS1 (stereo not given in full)	5.59
C=C1C(=O)[C@]23[C@H](OC(=O)CCC(=O)Oc4ccc(-c5cc(=S)ss5)cc4)[C@H]1CC[C@H]2[C@@]12CO[C@]3(O)[C@@H](O)[C@@H]1C(C)(C)CCC2=O	5.44
C=C1C(=O)[C@]23[C@H](OC(=O)c4ccccc4C(=O)Oc4ccc(-c5cc(=S)ss5)cc4)[C@H]1CC[C@H]2[C@@]12CO[C@]3(O)[C@@H](O)[C@@H]1C(C)(C)CC[C@@H]2OC(C)=O	4.94
C=C1C(=O)[C@@]23C(=O)OC[C@]4(C(=O)CCC(C)(C)[C@H]4C=O)[C@@H]2CC[C@@H]1[C@H]3OC(=O)CCCC(=O)Oc1ccc(-c2cc(=S)ss2)cc1	6.00

Answer with reported pIC50 of C=C1C(=O)[C@@]23C(=O)OC[C@]4(C(=O)CCC(C)(C)[C@H]4C=O)[C@@H]2CC[C@@H]1[C@H]3OC(=O)CCC(=O)Oc1ccc(-c2cc(=S)ss2)cc1
5.74

Answer with reported pIC50 of C=C1C(=O)[C@]23[C@H](O)[C@H]1CC[C@H]2[C@@]12CO[C@@]3(O)[C@@H](O)[C@@H]1C(C)(C)CC[C@@H]2OC(C)=O
5.31

Answer with reported pIC50 of C=C1C(=O)[C@@]23C(=O)OC[C@]4([C@@H](OC(C)=O)CCC(C)(C)[C@H]4C=O)[C@@H]2CC[C@@H]1[C@H]3OC(=O)CCC(=O)Oc1ccc(-c2cc(=S)ss2)cc1
4.82

Answer with reported pIC50 of C=C1C(=O)[C@]23[C@H](OC(=O)CCCC(=O)Oc4ccc(-c5cc(=S)ss5)cc4)[C@H]1CC[C@H]2[C@@]12CO[C@]3(O)[C@@H](O)[C@@H]1C(C)(C)CCC2=O
5.42

---

pIC50 values for the compounds below.
test system: PBMC; test: Cytotoxicity against human PBMC assessed as reduction in cell viability after 72 hrs by MTT assay; format: cell-based
Answer as the number alone; pIC50 is minus log10 of concentration in mol/L.

smilesInput	pIC50
C=C1C(=O)[C@]23[C@H](OC(=O)CCCC(=O)Oc4ccc(-c5cc(=S)ss5)cc4)[C@H]1CC[C@H]2[C@@]12CO[C@]3(O)[C@@H](O)[C@@H]1C(C)(C)CCC2=O	4.76

--- query ---
Answer with reported pIC50 of C=C1C(=O)[C@]23[C@H](OC(=O)c4ccccc4C(=O)Oc4ccc(-c5cc(=S)ss5)cc4)[C@H]1CC[C@H]2[C@@]12CO[C@]3(O)[C@@H](O)[C@@H]1C(C)(C)CC[C@@H]2OC(C)=O
4.40

---

system: PBMC; assay: Cytotoxicity against human PBMC assessed as reduction in cell viability after 72 hrs by MTT assay; type: cell-based
pIC50 values for the compounds below.
Answer as the number alone; pIC50 is minus log10 of concentration in mol/L.

Recorded results for 2 compounds are shown here.
smilesInput	pIC50
C=C1C(=O)[C@@]23C(=O)OC[C@]4(C(=O)CCC(C)(C)[C@H]4C=O)[C@@H]2CC[C@@H]1[C@H]3OC(=O)CCCC(=O)Oc1ccc(-c2cc(=S)ss2)cc1	4.70
C=C1C(=O)[C@]23[C@H](OC(=O)CCC(=O)Oc4ccc(-c5cc(=S)ss5)cc4)[C@H]1CC[C@H]2[C@@]12CO[C@]3(O)[C@@H](O)[C@@H]1C(C)(C)CC[C@@H]2OC(C)=O	4.36

Answer with reported pIC50 of C=C1C(=O)[C@@]23C(=O)OC[C@]4([C@@H](OC(C)=O)CCC(C)(C)[C@H]4C=O)[C@@H]2CC[C@@H]1[C@H]3OC(=O)CCC(=O)Oc1ccc(-c2cc(=S)ss2)cc1
4.59

---

IC50 values for the molecules below.
test system: A549; assay: Antiproliferative activity against human A549 cells assessed as reduction in cell viability after 72 hrs by MTT assay; type: functional, cell-based; details: A549, 72 h

Recorded results for 2 molecules are shown here.
molecule	val
C=C1C(=O)[C@]23[C@H](OC(=O)c4ccccc4C(=O)Oc4ccc(-c5cc(=S)ss5)cc4)[C@H]1CC[C@H]2[C@@]12CO[C@]3(O)[C@@H](O)[C@@H]1C(C)(C)CC[C@@H]2OC(C)=O	16.7 µM
C=C1C(=O)[C@]23[C@H](OC(=O)CCCC(=O)Oc4ccc(-c5cc(=S)ss5)cc4)[C@H]1CC[C@H]2[C@@]12CO[C@]3(O)[C@@H](O)[C@@H]1C(C)(C)CCC2=O	4.38 µM

Answer with reported IC50 of C=C1C(=O)[C@@]23C(=O)OC[C@]4(C(=O)CCC(C)(C)[C@H]4C=O)[C@@H]2CC[C@@H]1[C@H]3O
5.31 µM

Answer with reported IC50 of C=C1C(=O)[C@@]23C(=O)OC[C@]4([C@@H](OC(C)=O)CCC(C)(C)[C@H]4C=O)[C@@H]2CC[C@@H]1[C@H]3OC(=O)CCC(=O)Oc1ccc(-c2cc(=S)ss2)cc1
27.5 µM

Answer with reported IC50 of Oc1ccc(-c2cc(=S)ss2)cc1
> 50 µM

Answer with reported IC50 of C=C1C(=O)[C@]23[C@H](OC(=O)c4ccccc4C(=O)Oc4ccc(-c5cc(=S)ss5)cc4)[C@H]1CC[C@H]2[C@@]12CO[C@]3(O)[C@@H](O)[C@@H]1C(C)(C)CCC2=O
7.69 µM

Answer with reported IC50 of O=C(O)CCCCC1CCSS1 (stereo unspecified)
> 50 µM

Answer with reported IC50 of C=C1C(=O)[C@]23[C@H](OC(=O)CCC(=O)Oc4ccc(-c5cc(=S)ss5)cc4)[C@H]1CC[C@H]2[C@@]12CO[C@]3(O)[C@@H](O)[C@@H]1C(C)(C)CC[C@@H]2OC(C)=O
6.34 µM

Answer with reported IC50 of C=C1C(=O)[C@]23[C@H](OC(=O)CCCC(=O)Oc4ccc(-c5cc(=S)ss5)cc4)[C@H]1CC[C@H]2[C@@]12CO[C@]3(O)[C@@H](O)[C@@H]1C(C)(C)CC[C@@H]2OC(C)=O
9.76 µM

Answer with reported IC50 of C=C1C(=O)[C@@]23C(=O)OC[C@]4(C(=O)CCC(C)(C)[C@H]4C=O)[C@@H]2CC[C@@H]1[C@H]3OC(=O)c1ccccc1C(=O)Oc1ccc(-c2cc(=S)ss2)cc1
7.45 µM

Answer with reported IC50 of C=C1C(=O)[C@@]23C(=O)OC[C@]4(C(=O)CCC(C)(C)[C@H]4C=O)[C@@H]2CC[C@@H]1[C@H]3OC(=O)CCC(=O)Oc1ccc(-c2cc(=S)ss2)cc1
5.54 µM

Answer with reported IC50 of C=C1C(=O)[C@@]23C(=O)OC[C@]4([C@@H](OC(C)=O)CCC(C)(C)[C@H]4C=O)[C@@H]2CC[C@@H]1[C@H]3OC(=O)CCCCC1CCSS1 (stereo partly specified)
19.9 µM

Answer with reported IC50 of C=C1C(=O)[C@@]23C(=O)OC[C@]4(C(=O)CCC(C)(C)[C@H]4C=O)[C@@H]2CC[C@@H]1[C@H]3OC(=O)CCCCC1CCSS1 (stereo partly specified)
7.92 µM
